All values here come from the supplement of paper PMC6555819.

Recorded measurements of PBM binding z-score, one per entry
Test system: PPARa:RXRa (NR concentration 270 nM, RXRa partner concentration 90 nM)
TEST_METHOD_NOTES: PBM binding z-score (relative to random genomic background probes); higher = stronger binding; sequences stand for … in GC…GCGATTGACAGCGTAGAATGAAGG
VALUE_KIND: PBM binding z-score

> print(dat)
                macromolecule.sequence  endpoint.value
 1  TCGAGTAGGTTACCAATGAGGCATTCAGCTTTCT               1
 2  CCTACTGGGACACGAAAGGTCATTGATTCAGTGA            4.65
 3  TGTATTAGTTGATTAGGGCAACCGAAACAGCGGA           0.484
 4  CAAACTAGGTCACGGGAAGGTCAAAGTCCGCATG            6.51
 5  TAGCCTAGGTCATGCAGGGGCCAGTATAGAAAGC            3.56
 6  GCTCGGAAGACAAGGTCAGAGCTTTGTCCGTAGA            1.97
 7  CCTACTGGGCCAAGGGTCATTGATTCCAATGCTC            5.27
 8  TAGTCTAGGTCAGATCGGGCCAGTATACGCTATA            2.38
 9  CCTTACGGGTCACTTCAGGTTATAGCATCGGAGT            4.36
10  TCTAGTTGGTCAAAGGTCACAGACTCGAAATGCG            6.87
11  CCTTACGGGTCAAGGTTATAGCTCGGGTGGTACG            5.04
12  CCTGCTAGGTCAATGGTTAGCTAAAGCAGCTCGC            2.63
